The values you see were collected from patent US20220402985A1.

# ASSAY SYSTEM: ErbB4 on neonatal rat cardiomyocytes (rat) (UniProt Q62956)
# Sequence (Q62956 26-1308): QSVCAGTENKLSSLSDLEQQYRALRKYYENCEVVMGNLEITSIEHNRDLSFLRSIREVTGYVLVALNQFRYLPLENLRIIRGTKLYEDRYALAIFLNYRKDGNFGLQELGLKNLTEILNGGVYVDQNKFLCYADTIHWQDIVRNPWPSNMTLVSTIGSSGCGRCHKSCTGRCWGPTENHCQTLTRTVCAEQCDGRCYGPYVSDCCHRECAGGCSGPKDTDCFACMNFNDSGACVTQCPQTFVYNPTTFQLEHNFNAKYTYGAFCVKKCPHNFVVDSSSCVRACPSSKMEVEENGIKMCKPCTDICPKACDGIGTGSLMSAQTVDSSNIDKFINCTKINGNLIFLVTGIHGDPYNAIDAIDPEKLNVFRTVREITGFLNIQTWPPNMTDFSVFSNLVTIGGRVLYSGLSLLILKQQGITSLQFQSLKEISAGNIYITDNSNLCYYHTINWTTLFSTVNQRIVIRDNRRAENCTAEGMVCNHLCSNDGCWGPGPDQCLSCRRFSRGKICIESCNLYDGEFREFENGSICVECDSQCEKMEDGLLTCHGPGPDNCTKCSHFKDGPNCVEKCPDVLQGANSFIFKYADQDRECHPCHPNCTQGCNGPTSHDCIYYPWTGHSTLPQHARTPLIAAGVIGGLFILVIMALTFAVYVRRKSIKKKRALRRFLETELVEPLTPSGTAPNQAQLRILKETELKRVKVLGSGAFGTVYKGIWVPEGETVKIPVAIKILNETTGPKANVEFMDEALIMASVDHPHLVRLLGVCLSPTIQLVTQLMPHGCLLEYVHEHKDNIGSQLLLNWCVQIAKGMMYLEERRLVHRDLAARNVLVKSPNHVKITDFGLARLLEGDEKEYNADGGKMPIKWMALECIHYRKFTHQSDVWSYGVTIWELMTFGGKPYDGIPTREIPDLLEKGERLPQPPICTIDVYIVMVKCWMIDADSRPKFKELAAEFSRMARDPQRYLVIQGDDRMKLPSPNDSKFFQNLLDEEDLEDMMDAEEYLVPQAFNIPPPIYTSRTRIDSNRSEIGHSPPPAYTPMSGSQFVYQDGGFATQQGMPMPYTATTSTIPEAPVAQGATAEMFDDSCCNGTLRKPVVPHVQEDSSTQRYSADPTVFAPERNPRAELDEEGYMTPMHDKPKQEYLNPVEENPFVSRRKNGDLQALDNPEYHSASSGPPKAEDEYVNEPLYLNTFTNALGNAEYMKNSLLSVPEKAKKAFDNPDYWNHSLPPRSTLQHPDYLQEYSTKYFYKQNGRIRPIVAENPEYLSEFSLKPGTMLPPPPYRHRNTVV
# ASSAY METHOD TEXT: cell-based or functional assay
MEASUREMENT KIND: CM % Agonism AVG (%)
Write the answer as a number in %, unit excluded.

Before answering, review these 4 worked examples.
BINDER | MEASUREMENT KIND | TEST VALUE
huNRG1(S177-Q237)(1D3)::GG::huFcSEFL2 (Pb) (Fc fusion) SHLVKCGENDKSFCVNGGECFVIEDPSIPSRYLCKCPNEFTGDRCQNDFLASFYKAEELYQGGDKTHTCPPCPAPELLGGPSVFLFPPKPKDTLMISRTPEVTCVVVDVSHEDPEVKFNWYVDGVEVHNAKTKPCEEQYGSTYRCVSVLTVLHQDWLNGKEYKCKVSNKALPAPIEKTISKAKGQPREPQVYTLPPSREEMTKNQVSLTCLVKGFYPSDIAVEWESNGQPENNYKTTPPVLDSDGSFFLYSKLTVDKSRWQQGNVFSCSVMHEALHNHYTQKSLSLSPGK | CM % Agonism AVG | 78
huNRG1(S177-Q237)(NRGE1P)::GG::huFcSEFL2 (Pb) (Fc fusion) SHLVKCAESHKSFCVNGGECFMIEGPSNPSRYLCKCPNEFTGDRCQDFFMASFYKAEELYQGGDKTHTCPPCPAPELLGGPSVFLFPPKPKDTLMISRTPEVTCVVVDVSHEDPEVKFNWYVDGVEVHNAKTKPCEEQYGSTYRCVSVLTVLHQDWLNGKEYKCKVSNKALPAPIEKTISKAKGQPREPQVYTLPPSREEMTKNQVSLTCLVKGFYPSDIAVEWESNGQPENNYKTTPPVLDSDGSFFLYSKLTVDKSRWQQGNVFSCSVMHEALHNHYTQKSLSLSPGK | CM % Agonism AVG | 28
huNRG1(S177-Q237)(NRGE1O)::GG::huFcSEFL2 (Pb) (Fc fusion) SHLVKCGEKHKSFCVNGGECYMVEGSSIPSRYLCKCPNEFTGDRCQDFFMASFYKAEELYQGGDKTHTCPPCPAPELLGGPSVFLFPPKPKDTLMISRTPEVTCVVVDVSHEDPEVKFNWYVDGVEVHNAKTKPCEEQYGSTYRCVSVLTVLHQDWLNGKEYKCKVSNKALPAPIEKTISKAKGQPREPQVYTLPPSREEMTKNQVSLTCLVKGFYPSDIAVEWESNGQPENNYKTTPPVLDSDGSFFLYSKLTVDKSRWQQGNVFSCSVMHEALHNHYTQKSLSLSPGK | CM % Agonism AVG | 27
huNRG1(S177-F229)(NRGE1C) 6xHis (ligand) SHLVKCGEKHKSFCVNGGECFMIEGPSNPSRYLCKCPNEFTGDRCQEDFMASFGGGGEGGGGAGGGGHHHHHH | CM % Agonism AVG | 106

Proceeding to the next binder to report its CM % Agonism AVG.
The measured CM % Agonism AVG associated with huNRG1(S177-Q237)(NRGE1M)::GG::huFcSEFL2 (Pb) (Fc fusion) SHLVKCGENDKSFCVNGGECFMIEGPSNPSRYLCKCPNEFTGDRCQDFFMASFYKAEELYQGGDKTHTCPPCPAPELLGGPSVFLFPPKPKDTLMISRTPEVTCVVVDVSHEDPEVKFNWYVDGVEVHNAKTKPCEEQYGSTYRCVSVLTVLHQDWLNGKEYKCKVSNKALPAPIEKTISKAKGQPREPQVYTLPPSREEMTKNQVSLTCLVKGFYPSDIAVEWESNGQPENNYKTTPPVLDSDGSFFLYSKLTVDKSRWQQGNVFSCSVMHEALHNHYTQKSLSLSPGK reads 30
